test: NCI Yeast Anticancer Drug Screen. Data for the cln2 rad14 strain (AID 165);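 also: 0% = growth equal to vehicle treated cultures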; conditions: S. cerevisiae cln2 rad14 strain, at 50.0 µM (retest, dose inferred, filed as 5.0)
This is part of a sample that, as a whole, favours compounds with a hit. Of some 79,000 tested, about 15% had one in any assay. Calls of active or inactive are those of the source. Rule as the data show it: active = growth inhibition above about 70%; inactive = the rest.
Result category, one only: active, inactive

# count of solved cases: 8
molecule=COc1ccc(/C=C(\C(=O)c2ccc(O)cc2)c2ccccc2)cc1OC class=active
molecule=O=C1OCCCN1/N=C/c1ccc([N+](=O)[O-])o1 class=inactive
molecule=COc1cc2c3c(c4ccc(OC)c(OC)c4c2cc1OC)CN1CCC[C@@H]1C3 class=active
molecule=CCCCCCCCCCNC(=O)CBr class=active
molecule=CCc1cccc(CC)c1Nc1nc2c(s1)C(=O)c1ccccc1C2=O class=active
molecule=Cc1ccc(-n2cc(-c3ccc(Cl)cc3)c3c(NN)ncnc32)cc1 class=inactive
molecule=CCCCCCC(O)(CCCCCC)CCCCCC class=inactive
molecule=Nc1cc2[nH]c(=O)c3cc(Cl)ccc3c2cc1Cl class=inactive

Inquiry: Would you mind telling me which call this test gave CCCCCCCCCC(=O)CC(=O)c1c(O)cccc1O ?
Reply text: active

Inquiry: Would you mind telling me which call this test gave CSCS(=O)C[C@H](CO)NC(=O)/C=C/c1c(C)[nH]c(=O)[nH]c1=O (some centres not stated) ?
Reply text: active

Inquiry: Would you mind telling me which call this test gave Cc1ccc(S(=O)(=O)C(Br)CC(=O)c2ccccc2)cc1 (configuration not stated) ?
Reply text: active

Inquiry: Would you mind telling me which call this test gave CC(=O)OCc1cc2ccccc2nc1C(Br)(Br)Br ?
Reply text: active

Inquiry: Would you mind telling me which call this test gave Fc1ccc(NC(=S)SCc2ccccc2)cc1F ?
Reply text: active

* * *

assay: NCI Yeast Anticancer Drug Screen. Data for the sgs1 mgt1 strain (AID 161);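 also: 0% = growth of cultures given vehicle only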; settings: S. cerevisiae sgs1 mgt1 strain, at 50.0 µM, stronger effect = higher value
This is part of a sample that, as a whole, favours compounds with a hit. Of some 79,000 tested, about 15% had one in any assay.
experimentalEndpoint: growth inhibition (%)
Quick note: give the figure in %, leave out the unit.

Some solved cases for reference:
compound=O=C(/C=C/c1cccc2ccccc12)c1cccc([N+](=O)[O-])c1 experimentalendpoint="growth inhibition" observedresult=14.3
compound=Cc1cccc(Cl)c1NC(=S)Nc1cccc(C(F)(F)F)c1 experimentalendpoint="growth inhibition" observedresult=92.3
compound=O=Cc1ccc(-c2nccc3c2[nH]c2ccccc23)o1 experimentalendpoint="growth inhibition" observedresult=19.1
compound="O=C(CC(O)(C(F)(F)F)C(F)(F)F)C(c1ccccc1)C(O)(C(F)(F)F)C(F)(F)F (stereo unspecified)" experimentalendpoint="growth inhibition" observedresult=84.2
compound="O=C(CCCN1CCN2Cc3[nH]c4ccccc4c3CC2C1)c1ccc(F)cc1 (stereo unspecified)" experimentalendpoint="growth inhibition" observedresult=66.8

Notebook: CN(C)CCCC(=O)OCC[N+](C)(C)C , growth inhibition read as -11.2

Notebook: CS(=O)(=O)N1C(=O)C2C3CCC(O3)C2C1=O (stereo unspecified) , growth inhibition read as 26.4

Notebook: CCCCN(CCCC)CC(O)c1cc(-c2ccc(Cl)cc2)nc2c(Cl)cccc12 (stereo unspecified) , growth inhibition read as 99.2

Notebook: Cc1ccc(NC(=O)CCc2nnc(N)n2N)cc1 , growth inhibition read as 97.5

Notebook: C1=C([P+](c2ccccc2)(c2ccccc2)c2ccccc2)CCCC1 , growth inhibition read as 88.5

Notebook: Cc1cccc2c1Oc1ccccc1C2N1C(=O)/C(=C/c2ccccc2Cl)SC1=S (stereo unspecified) , growth inhibition read as 38.4

* * *

test: NCI Yeast Anticancer Drug Screen. Data for the mlh1 rad18 strain (AID 175); details: S. cerevisiae mlh1 rad18 strain growth inhibition; at 50.0 µM
About 79,000 compounds went through this panel and 15% of them were active in at least one assay; those are over-represented in the sample as a whole. Calls of active or inactive are those of the source. Rule as the data show it: active = growth inhibition above about 70%; inactive = the rest.
Result category, one only: 1 (active), -1 (inactive)

compound=O=C(COc1ccc2ccccc2c1)NC1c2ccccc2Oc2ccccc21 class=-1
compound=O=c1oc2ccccc2c(O)c1/C=N/C(=S)NCc1ccccc1 class=-1
compound=Oc1ccc(C23CC4CC(CC(C4)C2)C3)cc1 class=-1
compound="COc1cc(O)c2c(c1)C(=O)c1cc3c(c(O)c1C2=O)C(OC1OC(C)C(O)C(O)C1OC)C(OC)C(C)(O)C3=O (stereo not given)" class=1
compound=Cc1nc2c(O)c3c(c(O)c2nc1C)C1C=CC3CC1 class=-1

Inquiry: Would you mind telling me which call this test gave C/C(=N\NC(=S)N1CCCC1)c1nc2ncccc2[nH]1 ?
Reply text: 1

Inquiry: Would you mind telling me which call this test gave O=C1CCCCC1=C(I)I ?
Reply text: 1

Inquiry: Would you mind telling me which call this test gave CCCCCCOC(=O)COc1ccccc1 ?
Reply text: -1

Inquiry: Would you mind telling me which call this test gave CC1(C)CC(=O)C(CC2C(=O)c3ccccc3C2=O)C(=O)C1C(=O)C(=O)Nc1cccc2ccc(O)cc12 (stereo not given) ?
Reply text: -1

Inquiry: Would you mind telling me which call this test gave CNC1=C2NC(=O)/C(C)=C\C=C\C(C)C(O)C(C)C(O)C(C)C(OC(C)=O)C(C)C(OC)/C=C/OC3(C)Oc4c(C)c(O)c(c(c4C3=O)C1=O)C2=O (stereo not given) ?
Reply text: -1

* * *

experiment: NCI Yeast Anticancer Drug Screen. Data for the mlh1 rad18 strain (AID 175); details: S. cerevisiae mlh1 rad18 strain growth inhibition; at 50.0 µM (retest, dose inferred, filed as 5.0); stronger effect = higher value
About 79,000 compounds went through this panel and 15% of them were active in at least one assay; those are over-represented in the sample as a whole.
Overview of reported growth inhibition across a group of molecules:
Quick note: give the figure in %, leave out the unit.

molecule="O=C1CC(O)C=C1Nc1ccc(Cl)cc1 (stereo unspecified)" experimentalendpoint="growth inhibition" observedresult=7

Notebook: Clc1ccccc1/C=C/c1ccccn1 , growth inhibition read as -6

Notebook: Cc1nc(N)nn1C , growth inhibition read as 2

* * *

Overview of reported growth inhibition across a group of molecules:
test: NCI Yeast Anticancer Drug Screen. Data for the rad50 strain (AID 155);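 also: 0% = growth of vehicle-only cultures of the same strain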; details: S. cerevisiae rad50 strain growth inhibition; at 5.0 µM (retest, dose inferred, filed as 0.5); stronger effect = higher value
The panel holds about 79,000 compounds, 15% with a hit somewhere; the sample as a whole holds those more often. Active and inactive are the calls of the source. Cut-off read from the data, not from the text of the source: active = growth inhibition above about 70%; inactive = the rest.

Some solved cases for reference:
molecule=CC(C)(C)c1ccc(Br)c(CCC(=O)NO)c1 observedresult="-2% (inactive)"
molecule=CCOC(=O)c1cc2c(nc1NCc1ccc(OC)c(OC)c1)/C(=C/c1ccccc1)CCCC2 observedresult="38% (inactive)"
molecule=Oc1c(Cl)cc(Cl)cc1Br observedresult="-4% (inactive)"

Notebook: O=S(=O)(O)CNc1cc(Cl)cc(Cl)c1 , growth inhibition read as 34% (inactive)

Notebook: CC(=O)OCC1OC(c2cccc3c2c2ccccc2n3S(=O)(=O)c2ccccc2)C(O)C1O (centres undefined) , growth inhibition read as 1% (inactive)

Notebook: CN(C)CCCNc1cc(/C=C/c2ccc([N+](=O)[O-])cc2)nc2ccccc12 , growth inhibition read as -6% (inactive)

* * *

test: NCI Yeast Anticancer Drug Screen. Data for the mlh1 rad18 strain (AID 175); details: S. cerevisiae mlh1 rad18 strain growth inhibition; at 50.0 µM; stronger effect = higher value
The panel holds about 79,000 compounds, 15% with a hit somewhere; the sample as a whole holds those more often.
Given measured growth inhibition, output Met if it is greater than or equal to 90% and Not met if not.

# count of solved cases: 3
compound=C[C@H](CCC(=O)O)[C@H]1CC[C@H]2[C@@H]3CC[C@@H]4C[C@H](O)CC[C@]4(C)[C@H]3C[C@H](O)[C@]12C class=Met
compound=CC(=O)OCCSCCOC(C)=O class="Not met"
compound=CC(C)CCCOC(=O)c1cc([N+](=O)[O-])cc([N+](=O)[O-])c1 class=Met

Please find the next compound below.
Inquiry: Check the entry C=C(CN(C)C)C(=O)c1ccc(OC2OC(COC(C)=O)C(OC(C)=O)C(OC(C)=O)C2OC(C)=O)cc1 (configuration not stated) : does growth inhibition equal or exceed 90%?
Reply text: Not met

* * *

Experiment: NCI Yeast Anticancer Drug Screen. Data for the sgs1 mgt1 strain (AID 161);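 also: 0% = growth of cultures given vehicle only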
Details: S. cerevisiae sgs1 mgt1 strain, at 50.0 µM, stronger effect = higher value
Protocol: Growth inhibition of yeast strains with defined genetic alterations is measured as a screen for potential anti-cancer activity. Selected strains with alterations in DNA damage repair or cell cycle control were exposed to compounds and growth inhibition was measured relative to vehicle treated controls. The strain used in this assay is sgs1 mgt1
The panel holds about 79,000 compounds, 15% with a hit somewhere; the sample as a whole holds those more often.
Given measured growth inhibition, output Met if it is greater than or equal to 60% and Not met if not.

compound=O=C(/C=C/c1cccc([N+](=O)[O-])c1)CCl class=Met
compound=Cc1nc2c(cnn2-c2ccccc2)c(=O)o1 class="Not met"
compound=C/C(=N\NC(=S)N1CCC(C)CC1)c1cccc2cccnc12 class=Met

Inquiry: Check the entry CC(CN(C)C)C(=O)c1cn(C)c2ccccc12 (configuration not stated) : does growth inhibition equal or exceed 60%?
Reply text: Not met

Inquiry: Check the entry CCCCCCCCCCCCCCCCCCNCCCCCCCCCCCCCCCC : does growth inhibition equal or exceed 60%?
Reply text: Not met

Inquiry: Check the entry CCN(CC)CCNc1ccc(C)c2sc3ccc(OC)cc3c(=O)c12 : does growth inhibition equal or exceed 60%?
Reply text: Not met

Inquiry: Check the entry CC1CN(C(=S)NNC(C)c2cc3ccccc3cn2)CC(C)O1 (configuration not stated) : does growth inhibition equal or exceed 60%?
Reply text: Met

Inquiry: Check the entry COC(=O)c1cc(/C=C/c2ccccc2)on1 : does growth inhibition equal or exceed 60%?
Reply text: Not met

Inquiry: Check the entry Cn1c(=O)c2c(O)c(-c3ccccc3)c(=O)n3c4ccccc4n(c1=O)c23 : does growth inhibition equal or exceed 60%?
Reply text: Met

Inquiry: Check the entry COC(=O)C(=[N+]=[N-])C(=O)c1ccc(Cl)cc1 : does growth inhibition equal or exceed 60%?
Reply text: Not met

Inquiry: Check the entry CN(C)CC1CCCCCC(Br)C1=O (configuration not stated) : does growth inhibition equal or exceed 60%?
Reply text: Met
